Experiment: human metabolic stability half-life assay
Settings: microsomes, pH 7.4
quantity measured: half-life at 0.5 µM (h)
Number only, in h; omit the unit.

Qu. // returns reported half-life at 0.5 µM for input COc1cccc2c1NC(=O)[C@@H](NC(=O)[C@H](CCC(F)(F)F)[C@H](CCC(F)(F)F)C(N)=O)N=C2c1ccc(Cl)cc1
Ans. 1.92

---

Molecular target: UniProtKB Q9UM47
Sequence (Q9UM47 40-2321 limits assumed): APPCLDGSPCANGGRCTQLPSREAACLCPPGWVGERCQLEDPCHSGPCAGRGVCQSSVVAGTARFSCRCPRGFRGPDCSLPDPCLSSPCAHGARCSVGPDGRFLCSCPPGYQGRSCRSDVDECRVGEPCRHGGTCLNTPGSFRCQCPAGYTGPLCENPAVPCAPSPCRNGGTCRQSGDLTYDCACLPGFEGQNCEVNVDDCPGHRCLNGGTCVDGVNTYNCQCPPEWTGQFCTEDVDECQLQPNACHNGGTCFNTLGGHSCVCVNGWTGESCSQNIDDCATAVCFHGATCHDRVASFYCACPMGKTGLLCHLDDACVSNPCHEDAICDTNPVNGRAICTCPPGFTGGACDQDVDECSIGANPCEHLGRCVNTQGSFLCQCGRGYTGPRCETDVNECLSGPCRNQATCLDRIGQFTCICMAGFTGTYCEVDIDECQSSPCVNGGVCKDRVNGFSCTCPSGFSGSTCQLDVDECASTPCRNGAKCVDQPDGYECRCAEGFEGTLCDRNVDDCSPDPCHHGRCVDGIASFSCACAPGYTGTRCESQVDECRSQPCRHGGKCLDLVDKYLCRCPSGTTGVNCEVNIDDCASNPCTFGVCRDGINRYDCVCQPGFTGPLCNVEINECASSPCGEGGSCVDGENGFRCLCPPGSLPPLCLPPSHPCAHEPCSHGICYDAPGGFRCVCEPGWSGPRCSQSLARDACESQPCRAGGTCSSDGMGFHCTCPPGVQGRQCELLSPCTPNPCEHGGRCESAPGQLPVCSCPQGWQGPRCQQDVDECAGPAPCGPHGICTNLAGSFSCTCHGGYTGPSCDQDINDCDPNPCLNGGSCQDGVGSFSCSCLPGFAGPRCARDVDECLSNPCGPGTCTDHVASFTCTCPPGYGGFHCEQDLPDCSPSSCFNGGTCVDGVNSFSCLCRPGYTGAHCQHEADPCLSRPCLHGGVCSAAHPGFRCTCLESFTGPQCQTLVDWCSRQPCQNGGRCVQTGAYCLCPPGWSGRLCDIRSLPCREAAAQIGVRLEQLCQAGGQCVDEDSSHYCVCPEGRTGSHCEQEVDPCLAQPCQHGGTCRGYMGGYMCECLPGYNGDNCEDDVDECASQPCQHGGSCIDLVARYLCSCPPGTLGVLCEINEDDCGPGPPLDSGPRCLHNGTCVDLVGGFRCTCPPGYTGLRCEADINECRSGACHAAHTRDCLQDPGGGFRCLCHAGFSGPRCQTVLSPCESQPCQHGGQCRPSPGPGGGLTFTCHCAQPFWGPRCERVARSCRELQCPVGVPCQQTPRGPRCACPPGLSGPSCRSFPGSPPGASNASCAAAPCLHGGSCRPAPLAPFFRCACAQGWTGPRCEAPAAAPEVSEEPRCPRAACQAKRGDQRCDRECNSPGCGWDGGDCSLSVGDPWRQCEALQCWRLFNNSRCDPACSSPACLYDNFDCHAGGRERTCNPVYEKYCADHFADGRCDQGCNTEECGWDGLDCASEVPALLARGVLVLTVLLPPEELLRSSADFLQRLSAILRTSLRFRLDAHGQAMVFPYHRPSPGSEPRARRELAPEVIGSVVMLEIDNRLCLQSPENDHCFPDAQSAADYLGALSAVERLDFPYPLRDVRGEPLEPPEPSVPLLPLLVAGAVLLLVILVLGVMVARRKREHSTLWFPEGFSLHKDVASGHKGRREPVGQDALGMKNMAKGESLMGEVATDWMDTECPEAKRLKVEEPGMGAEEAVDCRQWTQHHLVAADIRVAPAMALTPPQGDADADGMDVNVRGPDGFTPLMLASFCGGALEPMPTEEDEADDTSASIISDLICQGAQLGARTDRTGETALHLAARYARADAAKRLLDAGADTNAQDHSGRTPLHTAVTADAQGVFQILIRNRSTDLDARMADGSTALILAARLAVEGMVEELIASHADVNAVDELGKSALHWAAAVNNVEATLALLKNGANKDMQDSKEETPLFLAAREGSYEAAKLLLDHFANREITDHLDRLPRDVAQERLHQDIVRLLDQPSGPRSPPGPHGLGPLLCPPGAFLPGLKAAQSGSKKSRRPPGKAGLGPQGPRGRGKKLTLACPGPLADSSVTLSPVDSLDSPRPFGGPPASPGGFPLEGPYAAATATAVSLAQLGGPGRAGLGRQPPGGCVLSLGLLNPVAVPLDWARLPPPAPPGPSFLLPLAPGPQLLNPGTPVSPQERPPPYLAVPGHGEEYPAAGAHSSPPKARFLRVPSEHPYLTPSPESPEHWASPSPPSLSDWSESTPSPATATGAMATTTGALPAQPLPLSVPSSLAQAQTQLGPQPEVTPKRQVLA
Assay: Notch-CBF1 Transactivation Assay (Notch 3)
Details: HeLa cells co-transfected with truncated Notch 3 and CBF1 luciferase reporter; 18 hours incubation
Assignment: determine reported pIC50 for the given compounds.
When answering, recall that pIC50 equals minus log10 of the concentration in mol/L, and write that number alone.

Qu. If you can, please state the reported pIC50 value of Cc1ccc(C2=N[C@H](NC(=O)[C@H](CCC(F)(F)F)[C@H](CCC(F)(F)F)C(N)=O)C(=O)Nc3ccccc32)cc1 [Example 36] .
Ans. 8.52

Qu. What value of pIC50 has been reported for the following compound? CC(C)c1cccc2c1NC(=O)[C@@H](NC(=O)[C@H](CCC(F)(F)F)[C@H](CCC(F)(F)F)C(N)=O)N=C2c1cccc(Cl)c1 [Example 3]
Ans. 8.72

Qu. I'd like to know its pIC50. The compound in question is CCc1cccc2c1NC(=O)[C@@H](NC(=O)[C@H](CCC(F)(F)F)[C@H](CCC(F)(F)F)C(N)=O)N=C2c1cccc(C)c1 [Example 6]
Ans. 8.35

Qu. What does the record list as pIC50 for Cc1ccccc1C1=N[C@H](NC(=O)[C@H](CCC(F)(F)F)[C@H](CCC(F)(F)F)C(N)=O)C(=O)Nc2ccccc21 [Example 31] ?
Ans. 8.34

Qu. Requested read-out: pIC50. Entry: Cc1cccc2c1NC(=O)[C@@H](NC(=O)[C@H](CCC(F)(F)F)[C@H](CCC(F)(F)F)C(N)=O)N=C2c1cccc(C(F)(F)F)c1 [Example 20]
Ans. 8.85

Qu. Need pIC50, item Cc1cccc2c1NC(=O)[C@@H](NC(=O)[C@H](CCC(F)(F)F)[C@H](CCCC(F)(F)F)C(N)=O)N=C2c1cccc(C(F)(F)F)c1 [Example 18]
Ans. 8.11

Qu. If you can, please state the reported pIC50 value of Cc1cccc(C2=N[C@H](NC(=O)[C@H](CCC(F)(F)F)[C@H](CCCC(F)(F)F)C(N)=O)C(=O)Nc3c(Cl)cccc32)c1 [Example 17] .
Ans. 8.62

Qu. May I ask what pIC50 has been recorded for Cc1cccc(C2=N[C@H](NC(=O)[C@H](CCC(F)(F)F)[C@H](CCC(F)(F)F)C(N)=O)C(=O)Nc3c2cccc3C(C)C)c1 [Example 12] ?
Ans. 8.49

Qu. # get_value(readout='pIC50', item= Cc1cccc2c1NC(=O)[C@@H](NC(=O)[C@H](CCC(F)(F)F)[C@H](CCC(F)(F)F)C(N)=O)N=C2c1ccccc1 [Example 23] )
Ans. 8.08

Qu. Which pIC50 value belongs to NC(=O)[C@@H](CCC(F)(F)F)[C@@H](CCC(F)(F)F)C(=O)N[C@H]1N=C(c2cccc(C3CC3)c2)c2cccc(Cl)c2NC1=O [Example 25] ?
Ans. 8.54

Qu. What measured pIC50 goes with NC(=O)[C@@H](CCC(F)(F)F)[C@@H](CCC(F)(F)F)C(=O)N[C@H]1N=C(c2ccccc2)c2cccc(OC3CC3)c2NC1=O [Example 19] ?
Ans. 8.40

Qu. # get_value(readout='pIC50', item= Cc1cccc(C2=N[C@H](NC(=O)[C@H](CCC(F)(F)F)[C@H](CCC(F)(F)F)C(N)=O)C(=O)Nc3c(Cl)cccc32)c1 [Example 28] )
Ans. 8.14

Qu. Tell me the measured pIC50 of Cc1ccccc1C1=N[C@H](NC(=O)[C@H](CCC(F)(F)F)[C@H](CCC(F)(F)F)C(N)=O)C(=O)Nc2c(Cl)cccc21 [Example 21] , please.
Ans. 8.21

Qu. What does the data say about its pIC50? Entry: Cc1cccc2c1NC(=O)[C@@H](NC(=O)[C@H](CCC(F)(F)F)[C@H](CCC(F)(F)F)C(N)=O)N=C2c1ccc(F)cc1 [Example 22]
Ans. 8.20

Qu. Quick one: pIC50 of COc1cccc2c1NC(=O)[C@@H](NC(=O)[C@H](CCC(F)(F)F)[C@H](CCC(F)(F)F)C(N)=O)N=C2c1ccc(C(F)(F)F)cn1 [Example 33] ?
Ans. 8.13

Qu. pIC50 lookup needed for NC(=O)[C@@H](CCC(F)(F)F)[C@@H](CCC(F)(F)F)C(=O)N[C@H]1N=C(c2cccc(F)c2)c2cccc(CO)c2NC1=O [Example 37] , thanks.
Ans. 8.03

Qu. Which measured pIC50 value corresponds to Cc1cccc2c1NC(=O)[C@@H](NC(=O)[C@H](CCC(F)(F)F)[C@H](CCCC(F)(F)F)C(N)=O)N=C2c1cccc(Cl)c1 [Example 8] ?
Ans. 7.94

Qu. For Cc1cc(C)cc(C2=N[C@H](NC(=O)[C@H](CCC(F)(F)F)[C@H](CCC(F)(F)F)C(N)=O)C(=O)Nc3c(Cl)cccc32)c1 [Example 10] , what is its reported pIC50?
Ans. 8.27

Qu. Given the compound NC(=O)[C@@H](CCCC(F)(F)F)[C@@H](CCC(F)(F)F)C(=O)N[C@H]1N=C(c2ccccc2)c2cccc(OC3CC3)c2NC1=O [Example 16] , what is its reported pIC50?
Ans. 8.43

Qu. Using the record for Cc1ccc(C2=N[C@H](NC(=O)[C@H](CCC(F)(F)F)[C@H](CCCC(F)(F)F)C(N)=O)C(=O)Nc3c(Cl)cccc32)cc1C [Example 4] , report its pIC50.
Ans. 8.14

Qu. pIC50 for COc1cccc2c1NC(=O)[C@@H](NC(=O)[C@H](CCC(F)(F)F)[C@H](CCC(F)(F)F)C(N)=O)N=C2c1cccc(Cl)c1 [Example 26] ?
Ans. 8.47

Qu. Please report the recorded pIC50 for Cc1cccc(C2=N[C@H](NC(=O)[C@H](CCC(F)(F)F)[C@H](CCC(F)(F)F)C(N)=O)C(=O)Nc3c2cccc3C(F)(F)F)c1 [Example 9] .
Ans. 8.43

Qu. // lookup pIC50 for Cc1cccc2c1NC(=O)[C@@H](NC(=O)[C@H](CCC(F)(F)F)[C@H](CCC(F)(F)F)C(N)=O)N=C2c1cccc(F)c1 [Example 1]
Ans. 8.07

Qu. Need pIC50 of CCc1cccc2c1NC(=O)[C@@H](NC(=O)[C@H](CCC(F)(F)F)[C@H](CCC(F)(F)F)C(N)=O)N=C2c1cccc(Cl)c1 [Example 2] , thanks.
Ans. 8.37

Qu. // query pIC50 value for entry Cc1cc(C)cc(C2=N[C@H](NC(=O)[C@H](CCC(F)(F)F)[C@H](CCCC(F)(F)F)C(N)=O)C(=O)Nc3c(Cl)cccc32)c1 [Example 5]
Ans. 8.40

Qu. I'd like to know its pIC50. The compound in question is NC(=O)[C@@H](CCC(F)(F)F)[C@@H](CCC(F)(F)F)C(=O)N[C@H]1N=C(c2ccccc2)c2cccc(C3CC3)c2NC1=O [Example 24]
Ans. 8.68
